- SYSTEM_NAME: Transforming acidic coiled-coil-containing protein 3 (Homo sapiens) (UniProt Q9Y6A5)
- ASSAY_COMMENT: inhibition of ARNT PAS-B/TACC3 complex formation – biochemical, AlphaScreen, cherry-picked samples, confirmation (AID 651703);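 also: TACC3 partner is the GST-tagged E629A mutant dimer; hits lower the signal meaning they disrupt ARNT binding to TACC3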
- RECORDED_CONDITIONS: AlphaScreen His-ARNT PAS-B / GST-TACC3 binding, luminescence
READOUT_NAME: AC50

Which AC50 is listed for Cc1cccc(C(=O)Nc2nnc(-c3ccncc3)o2)c1 ?
36.5 µM

Which AC50 is listed for O=C(O)c1ncn(Cc2ccccc2)c1C(=O)O ?
13.8 µM

Which AC50 is listed for Cc1ccnc2nc(C(=O)Nc3nc(-c4ccccn4)cs3)nn12 ?
2.53 µM

Which AC50 is listed for c1ccc(-c2csc(Nc3nc(-c4ccccn4)nnc3-c3ccccc3)n2)cc1 ?
0.897 µM

Which AC50 is listed for O=C(O)CSc1cc(NS(=O)(=O)c2cccc([N+](=O)[O-])c2)c2ccccc2c1O ?
48.1 µM

Which AC50 is listed for N#Cc1ccsc1NC(=O)c1ccccn1 ?
21.9 µM

Which AC50 is listed for O=S(=O)(N[C@@H]1CC[C@@H](CCn2cc(-c3ccccn3)nn2)O[C@H]1CO)c1cccc(Cl)c1 ?
15.3 µM

Which AC50 is listed for Cc1cccnc1Nc1nc(-c2ccccn2)cs1 ?
0.756 µM

Which AC50 is listed for O=C(N[C@H]1CC[C@@H](CCn2cc(-c3ccccn3)nn2)O[C@@H]1CO)c1ccccc1 ?
15.5 µM

Which AC50 is listed for c1ccc(-c2nc3ccccc3[nH]2)nc1 ?
44 µM

Which AC50 is listed for O=C(O)c1ccc(C2CCCCC2)cn1 ?
3.12 µM

Which AC50 is listed for CCOc1cc(CNCc2ccccn2)cc(Cl)c1OC ?
39.7 µM

Which AC50 is listed for CC1(c2ccccc2)NC(=O)N(CC(=O)Nc2nc(-c3ccccn3)cs2)C1=O (configuration not stated) ?
6.64 µM

Which AC50 is listed for COc1cc(CCNc2ccc3nnc(-c4ccccc4)n3n2)cc(OC)c1OC ?
10.6 µM

Which AC50 is listed for Cc1nnc(NC(=O)c2ccc(S(=O)(=O)N3CCCCC3C)cc2)o1 (configuration not stated) ?
52 µM

Which AC50 is listed for O=C(O)CSc1c(O)c2ccccc2[nH]c1=O ?
34.5 µM

Which AC50 is listed for O=C(N[C@H]1CC[C@H](CCn2cc(-c3ccccn3)nn2)O[C@@H]1CO)c1ccncc1 ?
14.8 µM

Which AC50 is listed for COc1ccc(NC(=O)Nc2ccc3c(c2)CC(=O)N([C@@H](C)CO)C[C@@H](C)[C@H](CN(C)Cc2ccc(Oc4ccccc4)cc2)O3)cc1 ?
23.2 µM

Which AC50 is listed for COc1cc2c(cc1OC)-c1c3c(cc4c1[C@@H](C2)N(C)CC4)OCO3 ?
17.6 µM

Which AC50 is listed for O=C(Nc1nnc(-c2cccs2)o1)c1ccc(S(=O)(=O)N2CCOCC2)cc1 ?
17.1 µM

Which AC50 is listed for O=C(N/N=C/c1cc(Br)ccc1OC(=O)c1ccc(Br)cc1)c1ccncc1 ?
4.24 µM

Which AC50 is listed for CCOC(=O)CSc1cccc2cccnc12 ?
4.59 µM
